- testedSystem: the molecule itself
- protocolText: SEC
outcomeMeasure: binding result

response.value for Est3p-K3A (natural protein, S. cerevisiae, UniProt Q03096 1-181, looked up) MPAVILESHSKPTDSVFLQPWIKALIEDNSEHDQYHPSGHVIPSLTKQDLALPHMSPTILTNPCHFAKITKFYNVCDYKVYASIRDSSHQILVEFSQECVSNFERTHNCRITSETTNCLMIIGDADLVYVTNSRAMSHFKICLSNISSKEIVPVLNVNQATIFDIDQVGSLSTFPFVYKYL (field: binding result) = binds

binding result measured on Est3p-F72A (natural protein, S. cerevisiae, UniProt Q03096 1-181, looked up) MPKVILESHSKPTDSVFLQPWIKALIEDNSEHDQYHPSGHVIPSLTKQDLALPHMSPTILTNPCHFAKITKAYNVCDYKVYASIRDSSHQILVEFSQECVSNFERTHNCRITSETTNCLMIIGDADLVYVTNSRAMSHFKICLSNISSKEIVPVLNVNQATIFDIDQVGSLSTFPFVYKYL = binds

// binding result lookup, protein = Est3p-T115A (natural protein, S. cerevisiae, UniProt Q03096 1-181, looked up) MPKVILESHSKPTDSVFLQPWIKALIEDNSEHDQYHPSGHVIPSLTKQDLALPHMSPTILTNPCHFAKITKFYNVCDYKVYASIRDSSHQILVEFSQECVSNFERTHNCRITSEATNCLMIIGDADLVYVTNSRAMSHFKICLSNISSKEIVPVLNVNQATIFDIDQVGSLSTFPFVYKYL , result: binds
